From: ChEMBL document CHEMBL4622975

- testedOn: Tyrosine-protein phosphatase non-receptor type 1 (Homo sapiens, UniProt P18031)
- Sequence (P18031 whole entry): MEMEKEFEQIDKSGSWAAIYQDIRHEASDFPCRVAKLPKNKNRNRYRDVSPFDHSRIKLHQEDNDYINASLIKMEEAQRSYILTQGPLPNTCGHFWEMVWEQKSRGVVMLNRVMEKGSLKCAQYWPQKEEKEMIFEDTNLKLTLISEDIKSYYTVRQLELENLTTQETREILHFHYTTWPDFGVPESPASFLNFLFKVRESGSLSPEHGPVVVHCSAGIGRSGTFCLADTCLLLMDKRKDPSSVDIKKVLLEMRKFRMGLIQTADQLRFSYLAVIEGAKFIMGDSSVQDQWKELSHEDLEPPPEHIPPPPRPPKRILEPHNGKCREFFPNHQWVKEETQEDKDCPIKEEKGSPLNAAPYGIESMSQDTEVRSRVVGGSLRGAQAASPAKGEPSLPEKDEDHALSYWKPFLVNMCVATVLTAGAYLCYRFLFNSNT
recordedEndpoint: IC50

These recorded examples may help you get a feel for the data.
[[record]]
smi = "O=C(O)C(=O)Nc1ccc(/C=C\\c2ccc(C(F)(F)F)cc2)cc1"
result = "> 30 µM"

[[record]]
smi = "O=C(O)C(=O)Nc1ccc(/C=C\\c2ccccc2)cc1"
result = "> 30 µM"

[[record]]
smi = "CN(C)c1cc(O)c(C(=O)O)cc1C#Cc1ccc(NC(=O)C(=O)O)cc1"
result = "> 100 µM"

[[record]]
smi = "O=C(O)C(=O)Nc1ccc(C#Cc2ccc(C(F)(F)F)cc2F)cc1"
result = "> 30 µM"

[[record]]
smi = "NS(=O)(=O)c1ccc(C#Cc2ccc(NC(=O)C(=O)O)cc2)cc1"
result = "> 50 µM"


Query O=C(O)C(=O)Nc1ccccc1 yields IC50 of > 100 µM

Query O=C(O)C(=O)Nc1ccc(C#Cc2ccc(C(F)(F)F)cc2Cl)cc1 yields IC50 of > 30 µM

Query COC(=O)c1cc(C#Cc2ccc(NC(=O)C(=O)O)cc2)ccc1O yields IC50 of > 50 µM

Query O=C(O)C(=O)Nc1ccc(CCc2ccccc2)cc1 yields IC50 of > 30 µM

Query O=C(O)C(=O)Nc1ccc(C#Cc2ccc(C(F)(F)F)cc2)cc1 yields IC50 of > 50 µM

Query O=C(O)C(=O)Nc1ccc(C#Cc2ccc(OC(F)(F)F)cc2)cc1 yields IC50 of > 50 µM

Query CC(C)(C)OC(=O)NCC#Cc1ccc(NC(=O)C(=O)O)cc1 yields IC50 of > 100 µM

Query O=C(O)C(=O)Nc1ccc(C#Cc2ccccc2)cc1 yields IC50 of > 100 µM

Query O=C(O)C(=O)Nc1ccc(C#Cc2ccc(C(F)(F)F)cc2C(F)(F)F)cc1 yields IC50 of > 30 µM

Query COC(=O)c1cc(C#Cc2ccc(NC(=O)C(=O)O)cc2)c(N(C)C)cc1O yields IC50 of > 50 µM

Query O=C(O)C(=O)Nc1cccc(C#Cc2ccccc2)c1 yields IC50 of > 100 µM

Query CC(C)(C)OC(=O)Nc1ccc(C#Cc2ccc(NC(=O)C(=O)O)cc2)cc1 yields IC50 of > 50 µM

Query C#Cc1ccc(NC(=O)C(=O)O)cc1 yields IC50 of > 100 µM

Query O=C(O)C(=O)Nc1ccc(C#Cc2ccc3ccccc3c2)cc1 yields IC50 of > 50 µM
